Tested on: KG-1
Assay: Cellular Proliferation Assay (Cell Counting Kit-8), KG-1
Type: cell-based
Details: Homo sapiens; KG-1 cells, 72 hours; read-out: KG1 IC50
readout-kind: IC50

                                   compound  tested_target  measured
0  CNC(=O)c1cc(COc2cnc(Nc3cnc(N4C[C@@H](C)N[C@@H](C)C4)c(F)c3)nc2)c(F)c(OC)c1           KG-1     57 nM

Next item in the queue.
// IC50 lookup, compound = CNC(=O)c1cc(COc2cnc(Nc3cccc(-n4ccnn4)c3)nc2)c(Cl)c(OC)c1 , result: 14 nM

* * *

Target: Recombinant human FGFR2 (Homo sapiens, UniProt P21802)
Sequence (P21802 22-821): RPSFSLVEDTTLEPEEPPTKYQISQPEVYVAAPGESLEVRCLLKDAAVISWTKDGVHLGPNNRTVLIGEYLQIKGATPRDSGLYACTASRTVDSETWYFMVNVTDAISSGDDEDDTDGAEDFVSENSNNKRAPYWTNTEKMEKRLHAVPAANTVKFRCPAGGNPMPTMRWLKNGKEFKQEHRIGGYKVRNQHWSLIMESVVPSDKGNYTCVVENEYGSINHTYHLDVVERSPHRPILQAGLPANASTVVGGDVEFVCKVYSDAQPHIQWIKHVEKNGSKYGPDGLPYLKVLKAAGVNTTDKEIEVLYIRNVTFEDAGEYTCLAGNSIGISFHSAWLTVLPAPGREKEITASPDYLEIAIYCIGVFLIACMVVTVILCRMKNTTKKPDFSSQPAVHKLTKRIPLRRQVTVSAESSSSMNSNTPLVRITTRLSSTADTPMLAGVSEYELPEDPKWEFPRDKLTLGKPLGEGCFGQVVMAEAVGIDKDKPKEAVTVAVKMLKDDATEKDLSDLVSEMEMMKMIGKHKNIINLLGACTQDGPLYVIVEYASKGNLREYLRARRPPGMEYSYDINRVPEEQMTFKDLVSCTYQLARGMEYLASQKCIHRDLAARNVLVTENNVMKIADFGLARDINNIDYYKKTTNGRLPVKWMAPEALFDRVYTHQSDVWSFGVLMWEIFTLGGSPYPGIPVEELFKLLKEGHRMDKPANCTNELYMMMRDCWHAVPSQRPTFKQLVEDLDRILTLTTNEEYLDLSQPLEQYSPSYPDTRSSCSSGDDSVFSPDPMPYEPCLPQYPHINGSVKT
Test: Transcreener Kinase Assay of FGFR2
Format: biochemical
Details: read-out: FGFR2 (FP) IC50
Procedure: Example 24: Transcreener Kinase Assay of FGFR2 • 1. […] Prepare Solution • Test compounds were solved in DMSO and were diluted with assay buffer to 5 folds of final concentration keeping the DMSO concentration at 5%. […] [formula] […] And mP value is measured by following the instruction provided by BellBrook Labs. […] IC50: determined with add-in software for Microsoft Excel, XLfit™ (version 2.0) from ID Business Solutions (Guildford, UK).
The entries below come with measured pIC50 values attached.
Bear in mind: pIC50 is minus log10 of a mol/L concentration; give just that figure.

Examples with their reported pIC50 follow.
>>> df
                               given_smiles  measured
0  CNC(=O)c1cc(CCc2cnc(Nc3ccc(N4C[C@@H](C)N(C)[C@@H](C)C4)cc3)nc2)c(Cl)c(OC)c1      8.10
1  C#Cc1cccc(Nc2ncc(OCc3cc(C(=O)NC)cc(OC)c3F)cn2)c1      7.89
2  CNC(=O)c1cc(CCc2cnc(Nc3ccc(NC[C@@H](C)N)cc3)nc2)c(Cl)c(OC)c1      8.10
3  CNC(=O)c1cc(COc2cnc(Nc3ccc(N4CCOCC4)nc3)nc2)c(Cl)c(OC)c1      7.80
4  CNC(=O)c1cc(COc2cnc(Nc3cccc(-n4nccn4)c3)nc2)c(Cl)c(OC)c1      8.05
5  CNC(=O)c1cc(COc2cnc(Nc3cccc(OC)c3)nc2)c(F)c(OC)c1      7.80
6  CNC(=O)c1cc(COc2cnc(Nc3ccc(CCN(C)C)cc3)nc2)c(F)c(OC)c1      7.82

Sure, the documented pIC50 for CNC(=O)c1cc(COc2cnc(Nc3ccc4c(c3)NCC4)nc2)c(F)c(OC)c1 is 7.60

* * *

# IC50 per entry
Target: Recombinant human FGFR1 (Homo sapiens)
Test: Transcreener Kinase Assay of FGFR1
Format: biochemical
Settings: read-out: FGFR1 (FP) IC50
The response must be a number in µM with no trailing unit.

In [3]: df
Out[3]:
                                   molecule  readout_kind  display_unit  measured
0  CCN1CC[C@H](n2cc(Nc3ncc(CCc4cc(C(=O)NC)cc(OC)c4F)cn3)cn2)C1 [Compound 191]          IC50            µM     0.099
1  CNC(=O)c1cc(CCc2cnc(Nc3ccc(N)cc3)nc2)c(Cl)c(OC)c1 [Compound 80]          IC50            µM      0.01
2  CNC(=O)c1cc(COc2cnc(Nc3ccc(C(C)=O)cc3)nc2)c(F)c(OC)c1 [Compound 215]          IC50            µM     0.044

response.value for CNC(=O)c1cc(COc2cnc(Nc3ccc(C4CCNCC4)c(OC)c3)nc2)c(F)c(OC)c1 [Compound 258] (field: IC50) = 0.028

IC50 recorded for this molecule, CNC(=O)c1cc(CCc2cnc(Nc3cnn([C@@H]4CCOC4)c3)nc2)c(F)c(OC)c1 [Compound 136] , is 0.01

Entry CNC(=O)c1cc(OC)c(F)c(COc2cnc(Nc3cccc(N4C[C@@H](C)N[C@@H](C)C4)c3)nc2)c1F [Compound 275] ; IC50 = 0.014

The molecule CNC(=O)c1cc(COc2cnc(Nc3cccc(NC(C)=O)c3)nc2)c(F)c(OC)c1 [Compound 216] showed IC50 equal to 0.01

* * *

Target: FGFR3 kinase (Homo sapiens)
Sequence (P22607 23-806): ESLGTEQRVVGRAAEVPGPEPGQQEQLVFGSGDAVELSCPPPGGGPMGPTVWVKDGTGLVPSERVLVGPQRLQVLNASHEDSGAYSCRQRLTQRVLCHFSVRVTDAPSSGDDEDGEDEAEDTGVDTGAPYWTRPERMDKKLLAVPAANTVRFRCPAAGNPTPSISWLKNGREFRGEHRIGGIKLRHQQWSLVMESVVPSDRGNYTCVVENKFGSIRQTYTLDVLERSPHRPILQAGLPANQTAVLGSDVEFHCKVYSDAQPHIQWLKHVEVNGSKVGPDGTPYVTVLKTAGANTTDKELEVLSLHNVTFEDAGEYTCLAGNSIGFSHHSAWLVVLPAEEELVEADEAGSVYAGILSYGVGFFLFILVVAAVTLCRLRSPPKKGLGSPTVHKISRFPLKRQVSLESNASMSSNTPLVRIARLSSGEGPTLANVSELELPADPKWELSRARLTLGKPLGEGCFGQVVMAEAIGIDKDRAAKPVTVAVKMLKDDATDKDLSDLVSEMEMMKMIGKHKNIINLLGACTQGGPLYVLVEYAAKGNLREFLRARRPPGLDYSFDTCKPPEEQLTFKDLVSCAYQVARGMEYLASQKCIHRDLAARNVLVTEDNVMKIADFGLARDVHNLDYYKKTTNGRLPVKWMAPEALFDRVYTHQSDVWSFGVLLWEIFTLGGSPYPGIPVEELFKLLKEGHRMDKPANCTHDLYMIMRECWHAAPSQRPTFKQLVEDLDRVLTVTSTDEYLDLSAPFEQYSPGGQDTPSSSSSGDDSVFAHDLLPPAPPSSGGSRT
Experiment: Z-Lyte Kinase Assay of FGFR3
Assay type: biochemical
Details: Z-lyte
readout-kind: pIC50
Remember, pIC50 is on a log scale: it is -log10 of the molar concentration.

Example entries and their recorded answers appear below.
>>> print(df.to_string())
                                   molecule  measured
0  CNC(=O)c1cc(COc2cnc(Nc3ccc(N4CCN(C5CCCC5)CC4)c(OC)c3)nc2)c(F)c(OC)c1 [Compound 302]      8.05
1  CCN1CCC(c2ccc(Nc3ncc(OCc4cc(C(=O)NC)cc(OC)c4F)cn3)cc2OC)CC1 [Compound 280]      7.80
2  CNC(=O)c1cc(COc2cnc(Nc3cnc(N4C[C@@H](C)N[C@@H](C)C4)c(F)c3)nc2)c(Cl)c(OC)c1 [Compound 292]      7.85
3  CCN(CC)CCNC(C)c1ccc(Nc2ncc(OCc3cc(C(=O)NC)cc(OC)c3Cl)cn2)cc1 (stereo not shown) [Compound 295]      7.72
4  CNC(=O)c1cc(OC)c(Cl)c(COc2cnc(Nc3ccc(N4C[C@@H](C)N[C@@H](C)C4)nc3)nc2)c1F [Compound 291]      7.77
5  CNC(=O)c1cc(COc2cnc(Nc3cccc(CCN4CCN(CCOC)CC4)c3)nc2)c(F)c(OC)c1 [Compound 301]      8.00

# ---- query molecule ----
Tested on FGFR3 kinase (Homo sapiens): CNC(=O)c1cc(OC)c(Cl)c(COc2cnc(Nc3ccc(N4C[C@@H](C)N[C@@H](C)C4)c(F)c3)nc2)c1F [Compound 299] . Observed pIC50: 8.10

* * *

List of IC50 values.
Test system: KG-1
Experiment: Cellular Proliferation Assay (Cell Counting Kit-8), KG-1
Assay type: cell-based
Conditions: Homo sapiens; KG-1 cells, 72 hours; read-out: KG1 IC50
Quick reminder: number only, in nM, skip the unit.

Reference set (3 entries):
                                   compound  tested_target  readout_kind  measured
0  CNC(=O)c1cc(OC)c(F)c(COc2cnc(Nc3ccc(N4C[C@@H](C)N[C@@H](C)C4)nc3)nc2)c1F [Compound 278]           KG-1          IC50        34
1  CCN(CC)CCc1cccc(Nc2ncc(OCc3cc(C(=O)NC)cc(OC)c3F)cn2)c1 [Compound 243]           KG-1          IC50        69
2  CCN1CCc2cc(Nc3ncc(OCc4cc(C(=O)NC)cc(OC)c4F)cn3)ccc21 [Compound 224]           KG-1          IC50        63

Now turn to the next compound.
Query CNC(=O)c1cc(COc2cnc(Nc3ccc(-c4cnn(C)c4)cc3)nc2)c(F)c(OC)c1 [Compound 228] yields IC50 of 94

* * *

Items are presented alongside their recorded IC50.
Biological target: Recombinant human FGFR1 (Homo sapiens, UniProt P11362)
Sequence (P11362 22-822): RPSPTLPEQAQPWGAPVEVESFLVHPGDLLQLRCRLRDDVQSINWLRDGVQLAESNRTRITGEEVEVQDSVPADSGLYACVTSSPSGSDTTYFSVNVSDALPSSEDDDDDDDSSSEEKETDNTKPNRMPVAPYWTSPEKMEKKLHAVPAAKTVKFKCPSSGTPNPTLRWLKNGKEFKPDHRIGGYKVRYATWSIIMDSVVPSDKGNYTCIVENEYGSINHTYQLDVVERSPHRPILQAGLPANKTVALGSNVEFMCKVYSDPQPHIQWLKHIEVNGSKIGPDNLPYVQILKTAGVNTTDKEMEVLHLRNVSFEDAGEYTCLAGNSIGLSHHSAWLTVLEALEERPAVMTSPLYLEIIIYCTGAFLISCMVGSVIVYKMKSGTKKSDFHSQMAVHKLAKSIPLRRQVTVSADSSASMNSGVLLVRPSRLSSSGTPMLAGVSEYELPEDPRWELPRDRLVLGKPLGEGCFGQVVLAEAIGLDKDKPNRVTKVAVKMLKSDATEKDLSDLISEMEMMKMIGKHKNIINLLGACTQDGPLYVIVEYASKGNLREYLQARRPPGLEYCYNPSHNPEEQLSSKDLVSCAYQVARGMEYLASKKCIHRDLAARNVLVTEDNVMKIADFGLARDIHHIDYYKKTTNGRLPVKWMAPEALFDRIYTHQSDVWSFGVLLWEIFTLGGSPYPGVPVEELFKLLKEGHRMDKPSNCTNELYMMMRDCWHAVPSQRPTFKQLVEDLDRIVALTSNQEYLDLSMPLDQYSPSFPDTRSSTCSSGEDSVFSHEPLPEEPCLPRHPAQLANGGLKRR
Assay: Transcreener Kinase Assay of FGFR1
Format: biochemical
Conditions: read-out: FGFR1 (FP) IC50
Hi! Could you send only the number? It should be in nM, unit omitted.

Here's what some known entries look like.
>>> print(df.to_string())
                               given_smiles  readout_kind  display_unit  measured
0  CNC(=O)c1cc(COc2cnc(Nc3ccc(S(C)(=O)=O)cc3)nc2)c(F)c(OC)c1          IC50            nM        30
1  CCN(CC)CCc1cccc(Nc2ncc(OCc3cc(C(=O)NC)cc(OC)c3F)cn2)c1          IC50            nM        20
2  CNC(=O)c1cc(COc2cnc(Nc3cnc(N4C[C@@H](C)N[C@@H](C)C4)nc3)nc2)c(Cl)c(OC)c1          IC50            nM        20

Turning now to a further compound:
Per the record, CNC(=O)c1cc(COc2cnc(Nc3ccc(N4CCC(N(C)C)CC4)cc3)nc2)c(F)c(OC)c1 has IC50 of 10

* * *

Target: UniProt P22607
Assay: Z-Lyte Kinase Assay of FGFR3
Type: biochemical
# log10 of IC50 listing for each entry below
Each number you see is log10 of IC50, and the unit inside the log is nM.

In [3]: df
Out[3]:
                               given_smiles  measured
0  CNC(=O)c1cc(COc2cnc(Nc3ccc(-c4cnn(C)c4)cc3)nc2)c(F)c(OC)c1      2.08
1  CNC(=O)c1cc(COc2cnc(Nc3ccc(CN4CCOCC4)cc3)nc2)c(F)c(OC)c1      1.11
2  CCN1CC[C@H](n2cc(Nc3ncc(CCc4cc(C(=O)NC)cc(OC)c4F)cn3)cn2)C1      2.12
3  CNC(=O)c1cc(COc2cnc(Nc3cccc(NC(C)=O)c3)nc2)c(F)c(OC)c1      1.04
4  CNC(=O)c1cc(COc2cnc(Nc3ccc(N4CCC(N(C)C)CC4)cc3)nc2)c(F)c(OC)c1      0.78

// field: log10 of IC50; key: CNC(=O)c1cc(CCc2cnc(Nc3ccc(N)cc3)nc2)c(Cl)c(OC)c1 ; value = 1.11

For this compound ( CNC(=O)c1cc(COc2cnc(Nc3ccc([C@H]4CCCNC4)nc3)nc2)c(Cl)c(OC)c1 ), measured log10 of IC50 is 1.26

The recorded log10 of IC50 for CNC(=O)c1cc(COc2cnc(Nc3ccc4c(c3)NCC4)nc2)c(F)c(OC)c1 is 1.28

// log10 of IC50 value for CNC(=O)c1cc(COc2cnc(Nc3cccc(-n4ccnn4)c3)nc2)c(Cl)c(OC)c1 : 1.48

Lab note: CCN1CCN(c2ccc(Nc3ncc(CCc4cc(C(=O)NC)cc(OC)c4F)cn3)cc2OC)CC1 gave log10 of IC50 of 0.78

In plain terms, CNC(=O)c1cc(CCc2cnc(Nc3ccc(N4C[C@@H](C)N(C)[C@@H](C)C4)cc3)nc2)c(F)c(OC)c1 has a documented log10 of IC50 of 1.04

Form: compound = CCN1CCN(c2ccc(Nc3ncc(OCc4cc(C(=O)NC)cc(OC)c4Cl)cn3)cn2)CC1 ; log10 of IC50 = 0.90

These entries and their values trace back to patent US9701680B2.
